Hey, just so you know, these numbers are from paper PMC12529666.

Biological target: AGO2 A367P (Homo sapiens, UniProt Q9UKV8 1-859, A367P;S387D;S824A;S828D;S831D;S834A)
Sequence (Q9UKV8 whole entry A367P/S387D/S824A/S828D/S831D/S834A): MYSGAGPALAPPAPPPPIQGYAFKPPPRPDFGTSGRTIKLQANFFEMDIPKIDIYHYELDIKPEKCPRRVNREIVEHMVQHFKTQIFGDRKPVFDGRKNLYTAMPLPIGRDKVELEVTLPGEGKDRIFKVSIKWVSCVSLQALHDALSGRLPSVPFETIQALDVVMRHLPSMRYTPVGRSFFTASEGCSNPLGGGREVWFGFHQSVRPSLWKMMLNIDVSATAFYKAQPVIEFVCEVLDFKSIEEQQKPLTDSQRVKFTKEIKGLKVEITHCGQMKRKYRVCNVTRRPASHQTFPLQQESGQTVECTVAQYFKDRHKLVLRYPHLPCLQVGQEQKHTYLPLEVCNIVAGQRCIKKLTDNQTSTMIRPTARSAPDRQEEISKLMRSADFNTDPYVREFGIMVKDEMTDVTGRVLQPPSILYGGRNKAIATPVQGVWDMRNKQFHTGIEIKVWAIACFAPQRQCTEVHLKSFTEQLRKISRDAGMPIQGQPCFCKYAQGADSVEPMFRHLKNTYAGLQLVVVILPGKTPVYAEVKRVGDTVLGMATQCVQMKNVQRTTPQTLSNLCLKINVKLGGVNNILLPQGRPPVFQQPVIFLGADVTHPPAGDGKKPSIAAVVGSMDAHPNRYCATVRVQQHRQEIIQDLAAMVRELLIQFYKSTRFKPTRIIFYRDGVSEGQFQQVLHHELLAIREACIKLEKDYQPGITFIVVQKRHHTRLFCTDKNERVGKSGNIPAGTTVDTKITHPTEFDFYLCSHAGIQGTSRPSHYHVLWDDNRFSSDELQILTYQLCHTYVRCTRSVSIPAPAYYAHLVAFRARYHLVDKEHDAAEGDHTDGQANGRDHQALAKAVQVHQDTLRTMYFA
Test: RNA Bind-n-Seq (nitrocellulose filter binding and sequencing); miR-122 guide loaded in AGO2; 60 min incubation; 30 mM Tris pH 8.0, 100 mM potassium acetate, 2 mM magnesium acetate, 0.5 mM TCEP, 0.005% NP-40, 0.01 mg/ml yeast tRNA; 3 nM AGO2-miR-122, 100 nM RNA library; 60; high values mean tight binding
Settings: protein: recombinant; tags: His6 (N-terminal, pFastBac HTA)
Observation type: binding signal

[[record]]
binder = "ACGTCCCG (ssRNA, constant regions annealed to DNA blockers; guide miR-122 5' phosphate) RNA 1: GAGUUCUACAGUCCGACGAUCCCAACACGUCCCGCACCUGGAAUUCUCGGGUGCCAA RNA 2: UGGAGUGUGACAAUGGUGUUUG DNA 1: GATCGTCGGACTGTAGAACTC DNA 2: TTGGCACCCGAGAATTCCA"
observation_type = "binding signal"
recorded_measurement = "0.141 fold enrichment over input"

[[record]]
binder = "ACGTTTCG (ssRNA, constant regions annealed to DNA blockers; guide miR-122 5' phosphate) RNA 1: GAGUUCUACAGUCCGACGAUCCCAACACGUUUCGCACCUGGAAUUCUCGGGUGCCAA RNA 2: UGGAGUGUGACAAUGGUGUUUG DNA 1: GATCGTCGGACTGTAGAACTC DNA 2: TTGGCACCCGAGAATTCCA"
observation_type = "binding signal"
recorded_measurement = "0.13 fold enrichment over input"

[[record]]
binder = "ACATTTCG (ssRNA, constant regions annealed to DNA blockers; guide miR-122 5' phosphate) RNA 1: GAGUUCUACAGUCCGACGAUCCCAACACAUUUCGCACCUGGAAUUCUCGGGUGCCAA RNA 2: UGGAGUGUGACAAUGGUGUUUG DNA 1: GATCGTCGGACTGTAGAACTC DNA 2: TTGGCACCCGAGAATTCCA"
observation_type = "binding signal"
recorded_measurement = "0.151 fold enrichment over input"

[[record]]
binder = "ATACCTCG (ssRNA, constant regions annealed to DNA blockers; guide miR-122 5' phosphate) RNA 1: GAGUUCUACAGUCCGACGAUCCCAACAUACCUCGCACCUGGAAUUCUCGGGUGCCAA RNA 2: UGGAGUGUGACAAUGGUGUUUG DNA 1: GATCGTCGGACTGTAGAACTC DNA 2: TTGGCACCCGAGAATTCCA"
observation_type = "binding signal"
recorded_measurement = "0.127 fold enrichment over input"

[[record]]
binder = "GCGTCCTA (ssRNA, constant regions annealed to DNA blockers; guide miR-122 5' phosphate) RNA 1: GAGUUCUACAGUCCGACGAUCCCAACGCGUCCUACACCUGGAAUUCUCGGGUGCCAA RNA 2: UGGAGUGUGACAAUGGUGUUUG DNA 1: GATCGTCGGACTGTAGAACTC DNA 2: TTGGCACCCGAGAATTCCA"
observation_type = "binding signal"
recorded_measurement = "0.195 fold enrichment over input"


Hi! Can you tell me binding signal for each of these binders?
1. ACACCCTA (ssRNA, constant regions annealed to DNA blockers; guide miR-122 5' phosphate) RNA 1: GAGUUCUACAGUCCGACGAUCCCAACACACCCUACACCUGGAAUUCUCGGGUGCCAA RNA 2: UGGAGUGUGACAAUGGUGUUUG DNA 1: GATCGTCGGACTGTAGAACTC DNA 2: TTGGCACCCGAGAATTCCA
2. GTACTTCA (ssRNA, constant regions annealed to DNA blockers; guide miR-122 5' phosphate) RNA 1: GAGUUCUACAGUCCGACGAUCCCAACGUACUUCACACCUGGAAUUCUCGGGUGCCAA RNA 2: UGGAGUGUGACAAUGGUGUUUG DNA 1: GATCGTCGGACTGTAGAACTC DNA 2: TTGGCACCCGAGAATTCCA
3. ACACTTCA (ssRNA, constant regions annealed to DNA blockers; guide miR-122 5' phosphate) RNA 1: GAGUUCUACAGUCCGACGAUCCCAACACACUUCACACCUGGAAUUCUCGGGUGCCAA RNA 2: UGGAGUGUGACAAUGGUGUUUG DNA 1: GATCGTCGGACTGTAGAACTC DNA 2: TTGGCACCCGAGAATTCCA

1: 0.25 fold enrichment over input; 2: 0.347 fold enrichment over input; 3: 0.66 fold enrichment over input
